What follows is literature data on IC50 for UniProtKB Q9NWZ3.
Value Kind: IC50 (nM)

>>> df
                                   compound  value_kind  recorded_result
0  CN(C)CCc1cn2cc(NC(=O)c3coc(-c4ccnc(N)c4)n3)c(-c3ccccc3)cc2n1        IC50                2
1  CC(=O)N1CCC(N2CC(n3cc(NC(=O)c4cccc(-c5cnn(C(C)(C)C#N)c5)n4)c(C(F)F)n3)C2)CC1        IC50             0.91

P. CC12CC(c3cn4cc(C(=O)Nc5cccn(C6C[C@@H]6F)c5=O)c(OC5CCC5)nc4n3)(CO1)C2 (mixture of isomers)
Q. Cc1nsc2nc(Nc3cnn(C4CCOCC4)c3)nc(N[C@H]3CC[C@H](N4CCOCC4)CC3)c12
(Q) Returns the identifier with the smallest measured IC50 among P and Q . Answer format: the label of the selected item.
(A) P
(P: 0.4 nM, Q: 6.8 nM)

====

What follows is literature data on IC50 for IRAK4 (Homo sapiens (Human), UniProt Q9NWZ3).
Value Kind: IC50 (nM)

>>> print(df.to_string())
                                chem_smiles                         system_under_test  recorded_result
0  O=C(NC[C@@H](F)CO)c1cnc(Nc2ccc3ncsc3c2)cc1NC1CCCC1  IRAK4 (Homo sapiens (Human), UniProt Q9NWZ3)              5.9

I. c1nc(N[C@H]2CC[C@H](N3CCOCC3)CC2)c2cc(C3CCOCC3)ccc2n1
II. OC[C@H]1C[C@@H](Nc2nc(Nc3ccncc3)ncc2-c2nccs2)[C@H](O)[C@@H]1O
III. N[C@@H]1[C@H](Nc2ccc3ccc(C(=O)Nc4ccsc4C(F)(F)F)n3n2)CCCC1(F)F
IV. CC(C)Nc1cc(Nc2ccc3ncsc3c2)ncc1-c1nc(C(=O)NC[C@H](O)c2ccccc2)cs1
(Q) Ordering criterion: IC50; begin with the maximum. # format: label list in the order the request specifies
(A) III, II, I, IV
(III: 2980 nM, II: 260 nM, I: 91 nM, IV: 26 nM)

====

What follows is literature data on IC50 for IRAK4 (Homo sapiens (Human), UniProt Q9NWZ3).
Value Kind: IC50 (nM)

>>> df
                                chem_smiles  value_kind  value_units  recorded_result
0  CC(C)(O)[C@H](F)CNC(=O)c1cnc(Nc2ccn3ncc(F)c3n2)cc1NC1CC1        IC50           nM              3.2
1  CC(C)Nc1cc(Nc2ccc3ncsc3c2)ncc1C(=O)NCC[C@@H](C)NC(=O)[C@@H]1CC[C@@H](F)C1        IC50           nM              2.7
2  CNC(=O)c1ccc(Nc2cc(Nc3ccc4ncsc4c3)ncc2-c2nnc(C(=O)N3CC[C@@H](O)C3)s2)cc1        IC50           nM              3.2
3  CN(C)c1cc2nn([C@H]3CC[C@](C)(O)CC3)cc2cc1NC(=O)c1cccc(C(F)(F)F)n1        IC50           nM              2.7
